Field: inhibition at 375 g/ha. Provide a value for each of the molecules that follow.
test system: Amaranthus retroflexus; test: Herbicidal activity against Amaranthus retroflexus assessed as inhibition of fresh weed plant weight at 375 g/ha using pre-emergence treatment protocol; assay type: functional
Only the number, expressed in %, is required.

Test system Amaranthus retroflexus; read-out inhibition at 375 g/ha; what value for `C#CCOc1cc(-n2nnc3nn(CC=C)cc3c2=O)c(F)cc1Cl` ?
90.2

Test system Amaranthus retroflexus; read-out inhibition at 375 g/ha; what value for `C#CCN1C(=O)COc2cc(F)c(-n3nnc4c(cnn4CC=C)c3=O)cc21` ?
100

Test system Amaranthus retroflexus; read-out inhibition at 375 g/ha; what value for `C=CCN1C(=O)COc2cc(F)c(-n3nnc4c(cnn4CCC)c3=O)cc21` ?
77

Test system Amaranthus retroflexus; read-out inhibition at 375 g/ha; what value for `C#CCOc1cc(-n2nnc3c(cnn3CC=C)c2=O)c(F)cc1Cl` ?
27.9

Test system Amaranthus retroflexus; read-out inhibition at 375 g/ha; what value for `C=CCOc1cc(-n2nnc3c(cnn3CC=C)c2=O)c(F)cc1Cl` ?
27.9

Test system Amaranthus retroflexus; read-out inhibition at 375 g/ha; what value for `C=CCN1C(=O)COc2cc(F)c(-n3nnc4nn(CC=C)cc4c3=O)cc21` ?
100

Test system Amaranthus retroflexus; read-out inhibition at 375 g/ha; what value for `C#CCN1C(=O)COc2cc(F)c(-n3nnc4c(cnn4CCC)c3=O)cc21` ?
73.8

Test system Amaranthus retroflexus; read-out inhibition at 375 g/ha; what value for `C=CCN1C(=O)COc2cc(F)c(-n3nnc4c(cnn4CC=C)c3=O)cc21` ?
100

Test system Amaranthus retroflexus; read-out inhibition at 375 g/ha; what value for `C=CCOc1cc(-n2nnc3nn(CC=C)cc3c2=O)c(F)cc1Cl` ?
100

Test system Amaranthus retroflexus; read-out inhibition at 375 g/ha; what value for `C#CCN1C(=O)COc2cc(F)c(-n3nnc4nn(CC=C)cc4c3=O)cc21` ?
100

Test system Amaranthus retroflexus; read-out inhibition at 375 g/ha; what value for `CCCN1C(=O)COc2cc(F)c(-n3nnc4c(cnn4C)c3=O)cc21` ?
93.2

Test system Amaranthus retroflexus; read-out inhibition at 375 g/ha; what value for `C#CCN1C(=O)COc2cc(F)c(-n3nnc4c(cnn4C)c3=O)cc21` ?
96.3

Test system Amaranthus retroflexus; read-out inhibition at 375 g/ha; what value for `C=CCN1C(=O)COc2cc(F)c(-n3nnc4nn(CCC)cc4c3=O)cc21` ?
100

Test system Amaranthus retroflexus; read-out inhibition at 375 g/ha; what value for `C#CCN1C(=O)COc2cc(F)c(-n3nnc4nn(CCC)cc4c3=O)cc21` ?
100
